Tested on: MS2 coat protein
Protocol text: apparent KD of MS2 coat protein; designed switch direction (-1 OFF switch, 1 ON switch): -1; higher = weaker reporter binding
Experimental setup: input ligand: FMN 200 uM
We begin with a simple list: items and their reported apparent KD of MS2 coat protein.
# value in nM; strip the unit string

[[record]]
residue_sequence = "AAAAAGGUAGGAUAUCCACUUUAAAACAUGAGGAUCACCCAUGUAAAACCACAUGAAAAAGGAGAAGGACCAAAAA [AK-MS2ROC-r4-exclusion5-2] (Eterna round: R97, puzzle: Exclusion 5)"
target = "MS2 coat protein"
measured_number = 24.7

[[record]]
residue_sequence = "UCAUGUCCUGAGGAUAUCAAAGUCCUCCCGACAUGAGAAGGCAGGACAUGAGGAUCACCCAUGUGGAGCAGGGA [Sorareardi] (Eterna round: R97, puzzle: Exclusion 6)"
target = "MS2 coat protein"
measured_number = 10.3


Entry UUCCUCGUUGUGAGGAUAUCGUCCGUGUUUUGUUACGAGAAGGCACAUGAGGAUCACCCAUGUUACUUGAUGUU [JR_BMOE4_Sub073] (Eterna round: R96, puzzle: Brourd's mod of Exclusion 4) ; apparent KD of MS2 coat protein = 150

Briefly, apparent KD of MS2 coat protein measured for UGCUGACGAGGAUAUACAUGAGGAUCACCCAUGUAAGAUCAGCGACGAUAGUCGCAAUGUAGAAGGCGUCAGCA [E3/10-A3] (Eterna round: R97, puzzle: Exclusion 3) : 228

Looking up AGUGUGUGGCAGGAUAUUCUGUUGGUUCGGACAGAAGAAGGGUCUACAUGAGGAUCACCCAUGUAAGCGGUUGA [Ex6 #34] (Eterna round: R97, puzzle: Exclusion 6) , I found its apparent KD of MS2 coat protein recorded as 173

----------
System: MS2 coat protein
Protocol text: apparent KD of MS2 coat protein; designed switch direction (-1 OFF switch, 1 ON switch): -1; higher = weaker reporter binding
Experimental setup: input ligand: FMN 200 uM
Please note: 1 applies when apparent KD of MS2 coat protein is 40 nM or greater, and -1 applies otherwise.

[[record]]
residue_sequence = "GACUUCUCUGAGGAUAUUGCAUCAUACGAUCUAUAAGAAGGCAGAACAUGAGGAUCACCCAUGUGGGUUUCUAG [Bingo-Bango-28] (Eterna round: R97, puzzle: Exclusion 6)"
target = "MS2 coat protein"
answer_label = 1


INPUT: # check: apparent KD of MS2 coat protein of UGAGUGCGUGUUAGGAUAUGGUUUGGUAUUUCGGGCUAGAAGGGACAUGAGGAUCACCCAUGUAAUUGGCGGGU [-17.2, -16.9 kcal, 22% A] (Eterna round: R97, puzzle: Brourd's mod of Exclusion 4) is greater than or equal to 40 nM
OUTPUT: 1

INPUT: Exam item: decide whether the reported apparent KD of MS2 coat protein for GUUUACAAGCUAAGAUCCUACAUGAGGAUCACCCAUGUGGUCCGGUGACGUGAGUCACCGGACUUAGCUCGUCUUGA [salish99_S_TOV1_R5_092] (Eterna round: R97, puzzle: Sensor, turn-off variant 1) is at least 40 nM.
OUTPUT: -1

INPUT: Can CCGUCACAUGAGGAUCACCCAUGUCAGGAUAUCUCAGUGCAUCCACACGGACGCAUCAAGAGAAGGGACAAAAC [Vinxlusion 6 - Jieux - Exclusion 1] (Eterna round: R97, puzzle: Exclusion 1) be said to have apparent KD of MS2 coat protein at or above 40 nM?
OUTPUT: 1

INPUT: Textbook exercise: given the entry GAUUAGCGAGGAUAUACAUGAGGAUCACCCAUGUGAUCCUAAGGCUGAUCAAGCCUAUGUAGAAGGCGCAAAUC [salish99_ex3_r5_001] (Eterna round: R97, puzzle: Exclusion 3) , state whether its apparent KD of MS2 coat protein is greater than or equal to 40 nM.
OUTPUT: -1

INPUT: Quick check, apparent KD of MS2 coat protein >= 40 nM? AGCACGCUUUUGCUCGAUCACAUGAGGAUCACCCAUGUGUGCUAAUAGGCCAAGGUGAAAGCCUCAGACAUAGUUUA [Eternabot (L1) Solution 1] (Eterna round: R97, puzzle: Sensor, turn-off variant 1)
OUTPUT: 1

INPUT: Evaluate GAUCAUGCAGGAUAUACAUGUUCCAUGAAAACAUGGUCCUCACAUGAGGAUCACCCAUGUAGAAGGGCAUGAUC [Omei Ex2 A31] (Eterna round: R97, puzzle: Exclusion 2) : apparent KD of MS2 coat protein at minimum 40 nM?
OUTPUT: 1

INPUT: Determine whether this sequence has apparent KD of MS2 coat protein no lower than 40 nM: UUAACAUGCUGGUGAUCAUACAUGAGGAUCACCCAUGUAACAAGCUUUUUGCUCGUCUUAUAAGAUCACCAGCAUGU [Stov1/9-A1] (Eterna round: R97, puzzle: Sensor, turn-off variant 1)
OUTPUT: -1

----------
apparent KD of MS2 coat protein reference
Test system: MS2 coat protein
Protocol text: apparent KD of MS2 coat protein; designed switch direction (-1 OFF switch, 1 ON switch): -1; higher = weaker reporter binding
Experimental setup: Eterna round: R95; input ligand: FMN 200 uM
Enter your answer as a number in nM; do not include the unit.

Some sequences with known apparent KD of MS2 coat protein results, for comparison:
[[record]]
residue_sequence = "GAUUAUGCGAGCUUUAGGGACAUGAGGAUCACCCAUGUUCGUCUUGUUGAUCUAGGUACACUAACAUACCUAAAUCU [JMF 16] (puzzle: Sensor v3, turn-off variant 1)"
measured_number = 19.9

[[record]]
residue_sequence = "AGUACUAACACGAGAGUGUUAGUACUAUAAGCUUGUGAAACAUGAGGAUCACCCAUGUCCUCAUAAGCUCGUCUUAU [Mat - Sensor v3 - Turn-off var 2 - D103] (puzzle: Sensor v3, turn-off variant 2)"
measured_number = 15.3

[[record]]
residue_sequence = "CUGGUCCGAGGAUAUAUUAAGUGAUACAUGAGGAUCACCCAUGUUAUUUAAUGGAUAUUAAUAGAAGGCGGACUAG [Mat - Exclusion 5 - JL mod - D77] (puzzle: Exclusion 5)"
measured_number = 34.1

[[record]]
residue_sequence = "AGAUGGCGAGGAUAUACAUGAGGAUCACCCAUGUGAAGAGAAAGAGUGAGGAAGAAAAGUAGAAGGCGCUGUCA [Mat - Exclusion 3 - Mod of Salish D29] (puzzle: Exclusion 3)"
measured_number = 897


Consider AUAAUAAAGGAGGAUAUCGUAUCGGAAACGAUACGAGAAGGUCUAACAUGAGGAUCACCCAUGUUCCUCAAUAA [Mat - Exclusion 6 - Eli Mod - D48] (puzzle: Exclusion 6) . Its measured apparent KD of MS2 coat protein is 54.5

Note to self: apparent KD of MS2 coat protein recorded for CUUAGACAUGAGGAUCACCCAUGUGAGGAUAUGAUGCGGGAGACGAAAAGUUUCAGCAUCAGAAGGCACAUAUG [mod of disincluded 3 v.3 (my top score 87 - 34% A's)] (puzzle: Exclusion 1) was 349

// recorded apparent KD of MS2 coat protein for AGGGAUAAAGGAUAUACAUGAGGAUCACCCAUGUUGAGGAAAGUUAGAUGAGGAGGAAGUAGAAGGUUAGACGA [JR_Exclu3_Sub087] (puzzle: Exclusion 3) : 24.3

Lab note: measured apparent KD of MS2 coat protein of AAAUAAUAGAUAAAAUAAUACAUGAGGAUCACCCAUGUGCGAUGUUGAGGGUGAUACAGGCUUUUUGCUCGUCUUAU (puzzle: Sensor v3, turn-off variant 1) was 177

The reported value for GGUACUAUCACCUGAGUGGUAGUGCAACAAGCUUGUGAUACAUGAGGAUCACCCAUGUCCUCAUUUGCUCGUCUUAU [JL-sv3-2.25 JL mod] (puzzle: Sensor v3, turn-off variant 2) in terms of apparent KD of MS2 coat protein is 209

Value of apparent KD of MS2 coat protein reported for the sequence GAUUGACAUGAGGAUCACCCAUGUGAGGAUAUCGGCCGGACCUUGUUAGCUUCCGUCGCGAGAAGGCGCAUAGG [Exclusion 1 V37] (puzzle: Exclusion 1) is 62.6

----------
Tested on: MS2 coat protein
Protocol text: apparent KD of MS2 coat protein; higher = weaker reporter binding
Experimental setup: Eterna round: R107; input ligand: tryptophan 2.4 mM
Quick rule: apparent KD of MS2 coat protein of at least 50 nM means t, below that means f.

INPUT: Quick check: does AAAAGUAGGUCCAAUAAAACUACAUGUGAAGGAGCGCGCGAAAGCGCAGGUAGGUCGCACAUGAGGAUCACCCAUGUCCUACAAA [MAT - Exclusion Arginine A - Mod of Eli - D6] have apparent KD of MS2 coat protein greater than or equal to 50 nM?
OUTPUT: f

INPUT: I'd appreciate it if you could say whether AAGGUAUCACAGACAUGGGUGUACUGUGAUACCAGCUAGGAAACUAGCCCUUGGCAGCACAUGAGGAUCACCCAUGUAAGAAUAA [(T)'-(M)'-(T1)-(T2)-(M1)-(M2)_Design4_2/19/17] has apparent KD of MS2 coat protein at least equal to 50 nM.
OUTPUT: t

INPUT: # bool: apparent KD of MS2 coat protein of UGAUAUAGGGAGCCGUAUCAGAAACCUGAAGGAGCGCCGGAAAAGGCAGGUAGGUCGCGGGAACAUGAGGAUCACCCAUGUAUUC [dancer_small] >= 50 nM
OUTPUT: f

INPUT: Hello, I need to know if CCGUUUUAUGGCGACAUAGGGCGGACUGAAGGAGCGGUGAAUAAGCCAGGUAGGUCGCAGAGAUCCACAUGAGGAUCACCCAUGU [!0.aD] has measured apparent KD of MS2 coat protein not below 50 nM. Thanks!
OUTPUT: t

INPUT: Confirm if apparent KD of MS2 coat protein reported for the sequence ACAUGAGGAUCACCCAUGUAUCAACGGGAAGGAGCGCCAAACAAGGCAGGUAGGUCGCCCACAUGAGGAUCACCCAUGUGUUGGU [Exclusion Arginine A GF 29] is 50 nM or above.
OUTPUT: f

INPUT: In plain terms: is recorded apparent KD of MS2 coat protein at least 50 nM for UAAUGUGAGAGAAGGAGCGGAAGUCUCGUUACAACAUGAGGAUCACCCAUGUAACGUACAGUCCAGGUAGGUCGCUCUCGGGCGC [pqacmullin] ?
OUTPUT: f

INPUT: Could you tell me if the measured apparent KD of MS2 coat protein of ACAUUUAACUGAAGGAGCGUGAAUAACAUGAGGAUCACCCAUGUAACUUAGAUGCUUAUUUCACAGGUAGGUCGCAGACUAAUGA [JR_ExcArginiB_Sub010] reaches 50 nM or more?
OUTPUT: f

INPUT: Can UUAUGCAGGUCGGCCGCCACUACACACAUGAGGAUCACCCAUGUAGUUACUGGGUGAAGUGGCAGUAGGACCGGGACCCGCACAC [Brourdmod22] be said to have apparent KD of MS2 coat protein at or above 50 nM?
OUTPUT: t

INPUT: Would you say UGUAUGUGAUCUGAUACCAGUCCAACUGGUAAAAGAUGAGGAUCACCCAUCUAAAAUUGGGACCCUUGGCAGCAGAUCGCAUACU shows apparent KD of MS2 coat protein at minimum 50 nM?
OUTPUT: t

INPUT: Hi, just wondering whether UUAAUCAGGUUAGAAAACUAAUUUGCAGAAGGAGCGUGAUAAAACACAGGUAGGUCGCUGAAGGGAACAUGAGGAUCACCCAUGU [AstrosSSArgA#10] shows apparent KD of MS2 coat protein of 50 nM or higher.
OUTPUT: f

INPUT: Is apparent KD of MS2 coat protein at least 50 nM? Consider UCACGUGGGAAUGAUACCAGCCACAUGAGGAUCACCCAUGUGCAUGGUGUGAGCUUCACGGGCCCUUGGCAGCAUUUCAAGUCGC [Agelaus]
OUTPUT: f

INPUT: Confirm if apparent KD of MS2 coat protein reported for the sequence GGAUAGGACACGGCCGCCACUAGCUAGGAUACUAGCAACAUUUCCUCAGAUGAGGAUCACCCAUCUAGGACCGGGUGUCCUAUCG is 50 nM or above.
OUTPUT: t
